settings: in 1,4-dioxane, 323.15 K
assay readout: solubility (mole fraction)

1. O=Cc1ccc(O)c(Br)c1 0.0471

----------
conditions: in 1,4-dioxane, 313.15 K
assay readout: solubility (mole fraction)

1) O=Cc1ccc(O)c(Br)c1 0.0345

----------
settings: in cyclohexane, 288.15 K
assay readout: solubility (mole fraction)

1) O=Cc1ccc(O)c(Br)c1 0.000369

----------
details: in DMSO, 323.15 K
assay readout: solubility (mole fraction)

1) O=Cc1ccc(O)c(Br)c1 0.0467

----------
settings: in n-propanol, 283.15 K
assay readout: solubility (mole fraction)

1. O=Cc1ccc(O)c(Br)c1 0.01

----------
details: in n-butanol, 278.15 K
assay readout: solubility (mole fraction)

1. O=Cc1ccc(O)c(Br)c1 0.0106

----------
conditions: in n-pentanol, 313.15 K
assay readout: solubility (mole fraction)

1. O=Cc1ccc(O)c(Br)c1 0.0343

----------
conditions: in n-butanol, 298.15 K
assay readout: solubility (mole fraction)

1. O=Cc1ccc(O)c(Br)c1 0.0197

----------
settings: in n-propanol, 278.15 K
assay readout: solubility (mole fraction)

1. O=Cc1ccc(O)c(Br)c1 0.00865

----------
conditions: in DMSO, 303.15 K
assay readout: solubility (mole fraction)

1. O=Cc1ccc(O)c(Br)c1 0.0235

----------
details: in ethylene glycol, 288.15 K
assay readout: solubility (mole fraction)

1. O=Cc1ccc(O)c(Br)c1 0.00772

----------
conditions: in ethylene glycol, 278.15 K
assay readout: solubility (mole fraction)

1. O=Cc1ccc(O)c(Br)c1 0.00584

----------
details: in n-propanol, 293.15 K
assay readout: solubility (mole fraction)

1. O=Cc1ccc(O)c(Br)c1 0.0138

----------
settings: in isopropanol, 293.15 K
assay readout: solubility (mole fraction)

1. O=Cc1ccc(O)c(Br)c1 0.0123

----------
details: in n-butanol, 283.15 K
assay readout: solubility (mole fraction)

1) O=Cc1ccc(O)c(Br)c1 0.0122

----------
conditions: in 1,4-dioxane, 308.15 K
assay readout: solubility (mole fraction)

1. O=Cc1ccc(O)c(Br)c1 0.0297

----------
settings: in methanol, 293.15 K
assay readout: solubility (mole fraction)

1) O=Cc1ccc(O)c(Br)c1 0.00881

----------
conditions: in n-butanol, 323.15 K
assay readout: solubility (mole fraction)

1) O=Cc1ccc(O)c(Br)c1 0.0423

----------
conditions: in DMF, 283.15 K
assay readout: solubility (mole fraction)

1. O=Cc1ccc(O)c(Br)c1 0.0148

----------
details: in ethyl acetate, 283.15 K
assay readout: solubility (mole fraction)

1. O=Cc1ccc(O)c(Br)c1 0.011

----------
settings: in water, 298.15 K
assay readout: solubility (mole fraction)

1) O=Cc1ccc(O)c(Br)c1 0.00015

----------
settings: in DMF, 278.15 K
assay readout: solubility (mole fraction)

1. O=Cc1ccc(O)c(Br)c1 0.0129

----------
conditions: in isobutanol, 293.15 K
assay readout: solubility (mole fraction)

1) O=Cc1ccc(O)c(Br)c1 0.0155

----------
settings: in ethanol, 283.15 K
assay readout: solubility (mole fraction)

1) O=Cc1ccc(O)c(Br)c1 0.00852

----------
settings: in acetonitrile, 323.15 K
assay readout: solubility (mole fraction)

1) O=Cc1ccc(O)c(Br)c1 0.0273

----------
conditions: in isobutanol, 303.15 K
assay readout: solubility (mole fraction)

1) O=Cc1ccc(O)c(Br)c1 0.0215
